# System: PC-3
# Method: Antiproliferative activity against human PC3 cells after 72 hrs
# Assay type: functional, cell-based
# Settings: PC-3, 72 h
Experimental Readout: IC50

# Compound, Target Or System, Assay Value
rows = [
    ("COc1cc(Nc2ncc3c(C)nc(-c4ccccc4)n3n2)cc(OC)c1OC", "PC-3", "12 µM"),
    ("COc1cc(Nc2ncc3c(C)nc(-c4cccc(Br)c4)n3n2)cc(OC)c1OC", "PC-3", "26 µM"),
]

Ask: // fetch IC50 for COc1cc(Nc2ncc3c(C)nc(-c4cccc(C(F)(F)F)c4)n3n2)cc(OC)c1OC [GW837331X] ; system: PC-3
Reply: 7.8 µM

----------
# System: NCI-H460
# Method: Antiproliferative activity against human H460 cells after 72 hrs
# Format: functional, cell-based
# Settings: NCI-H460, 72 h
Experimental Readout: pIC50
# pIC50 = -log10(concentration in molar units)

# Compound, Target Or System, pIC50
records = [
    ("COc1cc(Nc2ncc3c(C)nc(-c4cccc(Br)c4)n3n2)cc(OC)c1OC", "NCI-H460", 5.24),
    ("COc1cc(Nc2ncc3c(C)nc(-c4ccccc4)n3n2)cc(OC)c1OC", "NCI-H460", 5.19),
]

Attention now shifts to the item below.
Ask: // fetch pIC50 for COc1cc(Nc2ncc3c(C)nc(-c4cccc(C(F)(F)F)c4)n3n2)cc(OC)c1OC [GW837331X] ; system: NCI-H460
Reply: 5.27

----------
# Method: Volume of distribution at steady state in mouse at 5 mg/kg, iv
# Type: ADME, organism-based
# Parameters: dose 5 mg/kg, route intravenous
# Settings: in vivo, read-out: Vdss
Experimental Readout: Vd (L/kg)
Express your answer in L/kg, writing the number without its unit.

Ask: For the compound COc1cc(Nc2ncc3c(C)nc(-c4ccccc4)n3n2)cc(OC)c1OC , report Vd.
Reply: 1.6

----------
# Method: AUC in po dosed mouse
# Assay type: ADME, organism-based
# Settings: plasma
Experimental Readout: AUC (ng·h/mL)
Express your answer in ng·h/mL, writing the number without its unit.

Ask: For the compound COc1cc(Nc2ncc3c(C)nc(-c4cccc(C(F)(F)F)c4)n3n2)cc(OC)c1OC [GW837331X] , report AUC.
Reply: 264

Ask: For the compound COc1cc(Nc2ncc3c(C)nc(-c4ccccc4)n3n2)cc(OC)c1OC , report AUC.
Reply: 301

----------
# Method: Oral bioavailability in mouse
# Type: ADME, organism-based
# Settings: in vivo
bioavailability by entry:
Express your answer in %, writing the number without its unit.

# Compound, bioavailability / %
data = [
    ("COc1cc(Nc2ncc3c(C)nc(-c4ccccc4)n3n2)cc(OC)c1OC", 10),
]

Attention now shifts to the item below.
Ask: For the compound COc1cc(Nc2ncc3c(C)nc(-c4cccc(C(F)(F)F)c4)n3n2)cc(OC)c1OC [GW837331X] , report bioavailability.
Reply: 18

----------
# Method: Volume of distribution at steady state in mouse at 2.9 mg/kg, iv
# Format: ADME, organism-based
# Parameters: dose 2.9 mg/kg, route intravenous
# Settings: in vivo, read-out: Vdss
Experimental Readout: Vd (L/kg)
Express your answer in L/kg, writing the number without its unit.

Ask: For the molecule COc1cc(Nc2ncc3c(C)nc(-c4cccc(C(F)(F)F)c4)n3n2)cc(OC)c1OC [GW837331X] , report Vd.
Reply: 2.3

----------
# Target Or System: Serine/threonine-protein kinase PLK1 (Homo sapiens)
# Sequence (P53350 whole entry): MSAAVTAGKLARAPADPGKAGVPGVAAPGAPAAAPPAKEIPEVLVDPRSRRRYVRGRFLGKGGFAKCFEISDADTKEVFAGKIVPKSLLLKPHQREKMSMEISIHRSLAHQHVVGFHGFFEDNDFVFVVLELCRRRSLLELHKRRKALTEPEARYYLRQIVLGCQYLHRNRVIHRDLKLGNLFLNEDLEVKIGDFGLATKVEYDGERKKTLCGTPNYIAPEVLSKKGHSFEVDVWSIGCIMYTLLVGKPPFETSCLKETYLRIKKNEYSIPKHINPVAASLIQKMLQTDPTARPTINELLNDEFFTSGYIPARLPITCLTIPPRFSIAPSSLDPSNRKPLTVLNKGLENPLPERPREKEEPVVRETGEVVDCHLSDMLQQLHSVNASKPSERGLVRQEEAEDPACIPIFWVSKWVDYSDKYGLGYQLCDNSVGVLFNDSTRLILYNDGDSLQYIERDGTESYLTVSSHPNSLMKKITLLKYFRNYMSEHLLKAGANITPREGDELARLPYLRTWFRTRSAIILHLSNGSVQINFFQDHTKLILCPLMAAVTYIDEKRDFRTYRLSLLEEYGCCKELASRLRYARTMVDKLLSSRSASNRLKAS
log10(IC50) by entry:
Note: values are log10 of IC50 expressed in nM.

Here's what some known entries look like.
# Smiles Record, Experimental Readout, Assay Value
records = [
    ("COc1cccc(Nc2ncc3c(C)nc(-c4ccccc4)n3n2)c1", "log10(IC50)", 2.48),
    ("COc1cc(Nc2ncc3c(C)nc(-c4ccc(C(F)(F)F)cc4)n3n2)cc(OC)c1OC", "log10(IC50)", 3.03),
    ("Cc1nc(-c2ccccc2)n2nc(NCc3ccccc3)ncc12", "log10(IC50)", 3.18),
    ("Cc1nc(-c2ccccc2)n2nc(Nc3ccc([N+](=O)[O-])cc3)ncc12", "log10(IC50)", 3.45),
]

Ask: // fetch log10(IC50) for COc1cc(Nc2ncc3c(C)nc(-c4cccc(Br)c4)n3n2)cc(OC)c1OC ; system: Serine/threonine-protein kinase PLK1 (Homo sapiens)
Reply: 1.85

----------
# Method: Clearance in mouse at 5 mg/kg, iv
# Format: ADME, organism-based
# Parameters: dose 5 mg/kg, route intravenous
# Settings: in vivo
Experimental Readout: clearance (L/h/kg)
Express your answer in L/h/kg, writing the number without its unit.

Ask: For the compound COc1cc(Nc2ncc3c(C)nc(-c4ccccc4)n3n2)cc(OC)c1OC , report clearance.
Reply: 3.18
